- target.system: Adenosine receptor A3 (Homo sapiens, UniProt P0DMS8)
- Sequence (P0DMS8 whole entry): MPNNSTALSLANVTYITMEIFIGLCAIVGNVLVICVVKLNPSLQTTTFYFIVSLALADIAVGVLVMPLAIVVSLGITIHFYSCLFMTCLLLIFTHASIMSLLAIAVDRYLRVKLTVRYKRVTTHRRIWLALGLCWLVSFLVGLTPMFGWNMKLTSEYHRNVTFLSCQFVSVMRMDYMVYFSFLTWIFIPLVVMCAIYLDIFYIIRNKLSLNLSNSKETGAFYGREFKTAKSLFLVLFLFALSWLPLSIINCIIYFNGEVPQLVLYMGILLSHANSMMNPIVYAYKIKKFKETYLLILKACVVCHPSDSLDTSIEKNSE
Binary call on Ki with cut-off 40 nM: strictly below means 1, and equality or higher means 0.

molecular.string | group
Cc1ccccc1-n1cc2c(n1)c(N)nc1ccccc12 | 0
Clc1ccc2nc(NC3CCCCC3)c3nn(-c4ccccc4)cc3c2c1 | 0
CCCn1c(=O)c2nn(-c3ccccc3)cc2c2ccccc21 | 0
O=c1[nH]c2ccc(Cl)cc2c2cn(-c3ccccc3)nc12 | 0
Cc1ccc(-n2cc3c(n2)c(N)nc2ccccc23)cc1 | 0
Fc1cccc(-n2cc3c(n2)c(NC2CCCCC2)nc2ccccc23)c1 | 0
c1ccc(-n2cc3c(n2)c(NC2CCCC2)nc2ccccc23)cc1 | 0
Cc1cccc(-n2cc3c(n2)c(NC2CCCC2)nc2ccccc23)c1 | 1
COc1ccc(-n2cc3c(n2)c(=O)[nH]c2ccccc23)cc1 | 1
Cc1ccccc1-n1cc2c(n1)c(NC1CCCC1)nc1ccccc12 | 0
Cc1cccc(-n2cc3c(n2)c(NC2CCCCC2)nc2ccccc23)c1 | 0

* * *

- Tested on: Adenosine receptor A2a (Bos taurus)
- assay.remarks: Inhibition of specific [3H]-CGS- 21680 binding at Adenosine A2A receptor in bovine striatal membranes at 20 uM.
- experimental.setup: Striatum, Membrane
compounds and their reported inhibition

molecular.string | target.system | inhibition
Oc1nc2ccc(Cl)cc2c2cn(-c3ccccc3)nc12 | Adenosine receptor A2a (Bos taurus) | 52%
O=C(Nc1ccccc1)Nc1nc2ccccc2c2cn(-c3ccccc3)nc12 | Adenosine receptor A2a (Bos taurus) | 32%
COc1ccc(-n2cc3c(n2)c(=O)[nH]c2ccccc23)cc1 | Adenosine receptor A2a (Bos taurus) | 18%
Cc1cccc(-n2cc3c(n2)c(=O)[nH]c2ccccc23)c1 | Adenosine receptor A2a (Bos taurus) | 17%
Clc1ccc(-n2cc3c(n2)c(NC2CCCCC2)nc2ccccc23)cc1 | Adenosine receptor A2a (Bos taurus) | 8%
Oc1nc2ccccc2c2cn(-c3cccc(F)c3)nc12 | Adenosine receptor A2a (Bos taurus) | 0%

* * *

Listed below: pKi values for each entry.
- target.system: Adenosine receptor A1 (Bos taurus, UniProt P28190)
- Sequence (P28190 whole entry): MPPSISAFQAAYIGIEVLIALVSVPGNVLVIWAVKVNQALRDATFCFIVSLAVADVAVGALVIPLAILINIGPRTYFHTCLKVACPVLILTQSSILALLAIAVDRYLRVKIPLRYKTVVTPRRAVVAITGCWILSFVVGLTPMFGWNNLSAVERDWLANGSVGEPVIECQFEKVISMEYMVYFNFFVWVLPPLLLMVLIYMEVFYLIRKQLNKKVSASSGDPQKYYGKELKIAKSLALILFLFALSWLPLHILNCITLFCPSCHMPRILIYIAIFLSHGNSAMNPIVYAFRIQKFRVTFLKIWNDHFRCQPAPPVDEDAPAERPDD
pKi: −log10 of the molar value.

molecular.string | pKi
Cc1cccc(-n2cc3c(n2)c(N)nc2ccccc23)c1 | 6.89
O=C(Cc1ccccc1)Nc1nc2ccccc2c2cn(-c3ccccc3)nc12 | 6.97
Nc1nc2ccccc2c2cn(-c3cccc(F)c3)nc12 | 6.96
CC(=O)Nc1nc2ccccc2c2cn(-c3ccccc3)nc12 | 7.12
Cc1ccc(-n2cc3c(n2)c(NC2CCCCC2)nc2ccccc23)cc1 | 7.14
CCCn1c(=O)c2nn(-c3ccccc3)cc2c2ccccc21 | 6.02
Nc1nc2ccc(Cl)cc2c2cn(-c3ccccc3)nc12 | 7.06
c1ccc(-n2cc3c(n2)c(NC2CCCC2)nc2ccccc23)cc1 | 8.49
